# credit: the C3SDB collision cross section collection

Below, each of the compounds is paired with its reported collision cross section (N2) value.
Conditions: [M+Na]+; instrument: DT; stepped-field
Measurement Type: collision cross section (N2)

{"Compound": "CCCCCCCCCCCCC=CC[C@@H](O)[C@H](COP(=O)([O-])OCC[N+](C)(C)C)NC(=O)CCCCCCCCCCCCCCCCCCCCCCC [SM(42:01)]", "Readout Value": "302.6 Å²"}
{"Compound": "CCCCCCCCCCCCC=CC[C@@H](O)[C@H](CO[C@@H]1O[C@H](CO)[C@@H](O)C(O)C1O)NC(=O)CCCCCCCCCCCCCCCCCCCCCCCCC (stereo partly specified) [GlcCer(44:01)]", "Readout Value": "307.93 Å²"}
{"Compound": "CCCCCCCCCCCCC=CC[C@@H](O)[C@H](COP(=O)([O-])OCC[N+](C)(C)C)NC(=O)CC=CCCCCCCCCCCCCCCCCCCCC [SM(42:02)]", "Readout Value": "300.53 Å²"}
{"Compound": "CCCCCCCC/C=C\\CCCCCCCC(=O)O[C@H](COC(=O)CCCCCCCCCCCCCCCCC)COP(=O)(O)O [PA(36:01)]", "Readout Value": "273.4 Å²"}
{"Compound": "CCCCCCCCCCCCC=CC[C@@H](O)[C@H](COP(=O)([O-])OCC[N+](C)(C)C)NC(=O)CCCCCCCCCCCCCCCCCCCCCCCCC [SM(44:01)]", "Readout Value": "307.86 Å²"}
{"Compound": "CCCCCC/C=C\\CCCCCCCCCC(=O)O[C@H](COC(=O)CCCCCCCCCCCCCCC)COP(=O)(O)OCCN [PE(34:01)]", "Readout Value": "276.03 Å²"}

###

Details: [M+Na]+; instrument: DT; single field, calibrated with Agilent tune mix (Agilent)

{"Compound": "OC[C@H]1O[C@H](OC[C@H]2OC(O)[C@H](O)[C@@H](O)[C@@H]2O)[C@H](O)[C@@H](O)[C@H]1O (stereo partly specified)", "collision cross section (N2)": "176.8 Å²"}
{"Compound": "C[C@H](CCC(=O)NCC(=O)O)[C@H]1CC[C@H]2[C@@H]3[C@H](O)C[C@@H]4C[C@H](O)CC[C@]4(C)[C@H]3CC[C@]12C [Glycochenodeoxycholate]", "collision cross section (N2)": "203.3 Å²"}
{"Compound": "O=c1ccn([C@@H]2O[C@H](CO)[C@@H](O)[C@H]2O)c(=O)[nH]1", "collision cross section (N2)": "160.1 Å²"}
{"Compound": "O=C(COP(=O)(O)O)[C@H](O)[C@H](O)COP(=O)(O)O [D-Ribulose 1,5-bisphosphate]", "collision cross section (N2)": "163.3 Å²"}
{"Compound": "C[C@H](CCC(=O)NCC(=O)O)[C@H]1CC[C@H]2[C@@H]3CC[C@@H]4C[C@H](O)CC[C@]4(C)[C@H]3C[C@H](O)[C@]12C", "collision cross section (N2)": "203.9 Å²"}
{"Compound": "O=C(O)[C@H](O)COP(=O)(O)O [3-Phospho-D-glycerate]", "collision cross section (N2)": "139.4 Å²"}

###

Conditions: [M+H-H2O]+; instrument: DT; stepped-field
Quick reference for collision cross section (N2) among some molecules

{"Molecule": "CCCCCCCCCCCCC=CC[C@@H](O)[C@H](CO[C@@H]1O[C@H](CO)[C@@H](O)C(O)C1O)NC(=O)CCCCCCCCCCCCCCCCCCCCCCC (stereo partly drawn)", "collision cross section (N2) (Å²)": 298.36}
{"Molecule": "CCCCCCCCCCCCC=CC[C@@H](O)[C@H](CO[C@@H]1O[C@H](CO)[C@@H](O)C(O)C1O)NC(=O)CC=CCCCCCCCCCCCCCCCCCCCCCC (stereo partly drawn)", "collision cross section (N2) (Å²)": 301.46}
{"Molecule": "CCCCCCCCCCCCC=CC[C@@H](O)[C@H](CO)NC(=O)CCCCCCCCCCCCCCCCCCC", "collision cross section (N2) (Å²)": 263.93}
{"Molecule": "CCCCCCCCCCCCC=CC[C@@H](O)[C@H](CO)NC(=O)CCCCCCCCCCCCCCCCCCCCCC", "collision cross section (N2) (Å²)": 272.16}
{"Molecule": "CCCCCCCCCCCCC=CC[C@@H](O)[C@H](CO)NC(=O)CC=CCC=CCCCCCCCCCCCCCCCCC", "collision cross section (N2) (Å²)": 271.44}
{"Molecule": "CCCCCCCCCCCCC=CC[C@@H](O)[C@H](CO)NC(=O)CC=CCCCCCCCCCCCCCCCCCCCC", "collision cross section (N2) (Å²)": 273.26}
{"Molecule": "CCCCCCCCCCCCC=CC[C@@H](O)[C@H](CO[C@@H]1O[C@H](CO)[C@@H](O)C(O)C1O)NC(=O)CCCCCCCCCCCCCCCCCCCCCC (stereo partly drawn)", "collision cross section (N2) (Å²)": 294.63}
{"Molecule": "CCCCCCCCCCCCC=CC[C@@H](O)[C@H](CO[C@@H]1O[C@H](CO)[C@@H](O)C(O)C1O)NC(=O)CC=CCCCCCCCCCCCCCCCCCC (stereo partly drawn)", "collision cross section (N2) (Å²)": 290.36}
{"Molecule": "CCCCCCCCCCCCC=CC[C@@H](O)[C@H](CO)NC(=O)CCCCCCCCCCCCCCCCCCCCC", "collision cross section (N2) (Å²)": 269.41}
{"Molecule": "CCCCCCCCCCCCC=CC[C@@H](O)[C@H](CO[C@@H]1O[C@H](CO)[C@@H](O)C(O)C1O)NC(=O)CCCCCCCCCCCCCCCCC (stereo partly drawn)", "collision cross section (N2) (Å²)": 279.86}
{"Molecule": "CCCCCCCCCCCCC=CC[C@@H](O)[C@H](CO[C@@H]1O[C@H](CO)[C@@H](O)C(O)C1O)NC(=O)CCCCCCCCCCCCCCCCCCC (stereo partly drawn)", "collision cross section (N2) (Å²)": 286.62}
{"Molecule": "CCCCCCCCCCCCC=CC[C@@H](O)[C@H](CO)NC(=O)CCCCCCCCCCCCCCCCCCCCCCC", "collision cross section (N2) (Å²)": 275.06}
{"Molecule": "CCCCCCCCCCCCC=CC[C@@H](O)[C@H](CO[C@@H]1O[C@H](CO)[C@@H](O)C(O)C1O)NC(=O)CCCCCCCCCCCCCCCCCCCCC (stereo partly drawn)", "collision cross section (N2) (Å²)": 292.77}

###

Overview of recorded collision cross section (N2) for various compounds
Details: [M+H]+; instrument: DT; stepped-field

{"Compound": "CCCCCCCCCCCCC=CC[C@@H](O)[C@H](COP(=O)([O-])OCC[N+](C)(C)C)NC(=O)CCCCCCCCCCCCCCCCCCCCCCCCC [SM(44:01)]", "collision cross section (N2)": "309.76 Å²"}
{"Compound": "CCCCCCCCCCCCC=CC[C@@H](O)[C@H](COP(=O)([O-])OCC[N+](C)(C)C)NC(=O)CCCCCCCCCCCCCCCCCCCC [SM(39:01)]", "collision cross section (N2)": "295.85 Å²"}
{"Compound": "CCCCC/C=C\\C/C=C\\CCCCCCCCCCCC(=O)O[C@H](COC(=O)CCCCCCCCCCC)COP(=O)(O)OCCN [PE(34:02)]", "collision cross section (N2)": "268.45 Å²"}
{"Compound": "CCCCCCCCCCCCC=CC[C@@H](O)[C@H](CO[C@@H]1O[C@H](CO)[C@@H](O)C(O)C1O)NC(=O)CCCCCCCCCCCCCCCCCCCCCCCCC (stereo partly drawn) [GlcCer(44:01)]", "collision cross section (N2)": "306.44 Å²"}
{"Compound": "CCCCC/C=C\\C/C=C\\C/C=C\\CCCCCCC(=O)O[C@H](COC(=O)CCCCCCC/C=C\\C/C=C\\CCCCC)COP(=O)(O)OC[C@H](N)C(=O)O [PS(38:05)]", "collision cross section (N2)": "281.67 Å²"}
{"Compound": "CCCCCCCCCCCCC=CC[C@@H](O)[C@H](CO[C@@H]1O[C@H](CO)[C@@H](O)C(O)C1O)NC(=O)CCCCCCCCCCCCCCCCC (stereo partly drawn) [GlcCer(36:01)]", "collision cross section (N2)": "282.43 Å²"}
{"Compound": "CCCCC/C=C\\C/C=C\\C/C=C\\CCCCCCC(=O)O[C@H](COC(=O)CCCCCCC/C=C\\CCCCCCCC)COP(=O)(O)OC[C@H](N)C(=O)O [PS(38:04)]", "collision cross section (N2)": "284.44 Å²"}
{"Compound": "CCCCCC/C=C/CCCCCCCCCC(=O)O[C@H](COC(=O)CCCCCCCCCCCCCCC)COP(=O)([O-])OCC[N+](C)(C)C [PC(34:01)]", "collision cross section (N2)": "281.97 Å²"}
{"Compound": "CCCCCC/C=C\\CCCCCCCC(=O)OC[C@H](COP(=O)(O)OCCN)OC(=O)CCCCCCCCC/C=C\\CCCCCCCC [PE(36:02)]", "collision cross section (N2)": "275.13 Å²"}
{"Compound": "CCCCCCCCCCCCC=CC[C@@H](O)[C@H](COP(=O)([O-])OCC[N+](C)(C)C)NC(=O)CCCCCCCCCCCCCCCCCCCCCC [SM(41:01)]", "collision cross section (N2)": "301.14 Å²"}
{"Compound": "CCCCCC/C=C\\CCCCCCCCCC(=O)O[C@H](COC(=O)CCCCCCCCCCCCCCC)COP(=O)(O)OCCN [PE(34:01)]", "collision cross section (N2)": "270.06 Å²"}
{"Compound": "CCCCCCCCCCCCC=CC[C@@H](O)[C@H](COP(=O)([O-])OCC[N+](C)(C)C)NC(=O)CCCCCCCCCCCCCCCCCCCCCCC [SM(42:01)]", "collision cross section (N2)": "303.17 Å²"}
{"Compound": "CCCCCCCCCCCCC=CC[C@@H](O)[C@H](CO)NC(=O)CC=CCC=CCCCCCCCCCCCCCCCCC [Cer(42:03)]", "collision cross section (N2)": "275.18 Å²"}
